- TARGET SYSTEM: T1, human C1s (human, UniProt P09871 16-688)
- T1 construct: Analyte in the Biacore assays; also called hC1s; serum-derived human C1s (CompTech)
- T1 sequence: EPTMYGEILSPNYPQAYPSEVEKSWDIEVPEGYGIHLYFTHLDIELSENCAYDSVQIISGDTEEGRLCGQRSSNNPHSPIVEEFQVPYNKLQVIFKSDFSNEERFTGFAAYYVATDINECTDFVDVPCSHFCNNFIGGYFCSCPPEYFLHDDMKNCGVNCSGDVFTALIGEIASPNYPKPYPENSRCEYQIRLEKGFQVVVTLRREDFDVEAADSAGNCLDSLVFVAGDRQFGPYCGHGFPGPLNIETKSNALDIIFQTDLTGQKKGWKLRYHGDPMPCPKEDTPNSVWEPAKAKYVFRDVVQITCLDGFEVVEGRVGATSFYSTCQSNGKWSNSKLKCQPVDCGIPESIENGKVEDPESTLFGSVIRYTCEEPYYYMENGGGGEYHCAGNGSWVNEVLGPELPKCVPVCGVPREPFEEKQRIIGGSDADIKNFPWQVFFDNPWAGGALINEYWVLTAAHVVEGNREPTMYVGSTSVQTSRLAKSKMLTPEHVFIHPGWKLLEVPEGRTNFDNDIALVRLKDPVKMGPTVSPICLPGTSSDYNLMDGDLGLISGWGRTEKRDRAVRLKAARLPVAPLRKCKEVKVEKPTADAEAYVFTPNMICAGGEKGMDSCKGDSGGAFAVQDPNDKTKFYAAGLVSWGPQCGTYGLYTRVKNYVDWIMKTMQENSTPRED
- ASSAY PROTOCOL: SPR (Biacore T200, 37C), Ab captured on protein A/G; pH 5.8, 3 uM Ca
Documented Kd across a set of binders
MEASURED ATTRIBUTE: Kd (nM)

1. C1_IPN92H0166-SG4GK/IPN93L0024-SK1 (antibody, human IgG4 S228P, kappa, name in Kabat numbering, V domains shown, Substitutions from IPN009VH2, Kabat numbering; also called IPN92H0166/IPN93L0024) VH: EVMLVESGGGLVKPGGSLRLSCAASGFTFSNYAMSWVRQAPGKGLEWVATISSGGSHTYYEDSVKGRFTISRDNSKDTLYLQMNSLRAEDTALYYCARLFTGHAMDYWGQGTLVTVSS VL: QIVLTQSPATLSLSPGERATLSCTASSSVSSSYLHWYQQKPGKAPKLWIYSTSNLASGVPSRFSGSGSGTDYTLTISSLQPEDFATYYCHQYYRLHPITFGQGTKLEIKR: 6.75
2. C1_IPN92H0144-SG4GK/IPN93L0024-SK1 (antibody, human IgG4 S228P, kappa, name in Kabat numbering, V domains shown, Substitutions from IPN009VH2, Kabat numbering; also called IPN92H0144/IPN93L0024) VH: EVMLVESGGGLVKPGGSLRLSCAASGFTFSNYAMSWVRQAPGKGLEWVATISSGGSKTYYLDSVKGRFTISRDNSKDTLYLQMNSLRAEDTALYYCARLFTGHAMDYWGQGTLVTVSS VL: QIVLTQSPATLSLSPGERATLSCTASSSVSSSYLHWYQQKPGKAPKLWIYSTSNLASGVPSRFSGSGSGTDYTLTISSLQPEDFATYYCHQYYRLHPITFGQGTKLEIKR: 5.65
3. C1_IPN92H0061-SG4GK/IPN93L0024-SK1 (antibody, human IgG4 S228P, kappa, name in Kabat numbering, V domains shown, Substitutions from IPN009VH2, Kabat numbering; also called IPN92H0061/IPN93L0024) VH: EVMLVESGGGLVKPGGSLRLSCAASGFTKSNYAMSWVRQAPGKGLEWVATISSGGSHTYYLDSVKGRFTISRDNSKDTLYLQMNSLRAEDTALYYCARLFTGHAMDYWGQGTLVTVSS VL: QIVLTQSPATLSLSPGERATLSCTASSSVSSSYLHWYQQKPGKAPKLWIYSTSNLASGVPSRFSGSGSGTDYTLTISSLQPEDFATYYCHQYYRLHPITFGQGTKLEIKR: 5.43
4. C1_IPN92H0091-SG4GK/IPN93L0024-SK1 (antibody, human IgG4 S228P, kappa, name in Kabat numbering, V domains shown, Substitutions from IPN009VH2, Kabat numbering; also called IPN92H0091/IPN93L0024) VH: EVMLVESGGGLVKPGGSLRLSCAASGFTFSNYAKSWVRQAPGKGLEWVATISSGGSHTYYLDSVKGRFTISRDNSKDTLYLQMNSLRAEDTALYYCARLFTGHAMDYWGQGTLVTVSS VL: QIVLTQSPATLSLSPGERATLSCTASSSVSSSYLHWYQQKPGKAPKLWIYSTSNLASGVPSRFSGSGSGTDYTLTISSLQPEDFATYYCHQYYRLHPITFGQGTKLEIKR: 3.43
5. C1_IPN92H0079-SG4GK/IPN93L0024-SK1 (antibody, human IgG4 S228P, kappa, name in Kabat numbering, V domains shown, Substitutions from IPN009VH2, Kabat numbering; also called IPN92H0079/IPN93L0024) VH: EVMLVESGGGLVKPGGSLRLSCAASGFTFSNKAMSWVRQAPGKGLEWVATISSGGSHTYYLDSVKGRFTISRDNSKDTLYLQMNSLRAEDTALYYCARLFTGHAMDYWGQGTLVTVSS VL: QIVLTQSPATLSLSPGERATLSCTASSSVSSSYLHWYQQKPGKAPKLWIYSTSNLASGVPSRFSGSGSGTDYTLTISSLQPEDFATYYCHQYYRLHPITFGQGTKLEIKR: 8.75
